# targetOrSystem: T1, neuropilin-1 (NRP1) on HEK293 cells overexpressing NRP1 (UniProt O14786 22-923, limits assumed)
# T1 construct: whole, on cells
# assayOverview: flow cytometry, HEK293-NRP1 vs HEK293
Please provide measured 100 nM FACS (MFI Ratio) for the entries that follow.

100 nM FACS (MFI Ratio) reading for NRP1-262 (antibody, IgG2, V domains shown) VH: EVQLLESGGGLVQPGGSLRLSCAASGFTFKKYAMSWVRQAPGKGLEWVSTISGSGRSTYYADSVKGRFTISRDNSKNTLYLQMNSLRAEDTAVYYCARDLARGTMPRGVIIPHNWFDPWGQGTLVTVSS VL: DIQMTQSPSSLSASVGDRVTITCRTSQSINTYLNWYQQKPGKAPKLLIYAASGLHSGVPSRFSGSGSGTDFTLTISSLQPEDFATYYCQQAYGTPFTFGGGTKVEIK : 6.2

The binder listed as NRP1-227 (antibody, IgG2, V domains shown) VH: EVQLLESGGGLVQPGGSLRLSCAASGFTLRNYAMSWVRQAPGKGLEWVSALSSSGGSTYYADSVKGRFTISRDNSKNTLYLQMNSLRAEDTAVYYCARGGRGLRLQVPIVRHARKGKDYYMDVWGQGTLVTVSS VL: DIQMTQSPSSLSASVGDRVTITCRPSQSVTTYLNWYQQKPGKAPKLLIYGSSTLQSGVPSRFSGSGSGTDFTLTISSLQPEDFATYYCQQSYTFPRTFGGGTKVEIK shows 100 nM FACS (MFI Ratio) equal to 2.6

Per the record, NRP1-54 (VHH) VHH: EVQLVESGGGLVQPGGSLRLSCAASGIAFRIRTMGWFRQAPGKEREFVAGISRSGASTAYADSVKGRFTISADNSKNTAYLQMNSLKPEDTAVYYCAARRIVNVEGAYRDWGQGTLVTVSS has 100 nM FACS (MFI Ratio) of 0.6

Looking up NRP1-24 (VHH) VHH: EVQLVESGGGLVQPGGSLRLSCAASGFKFNDSYMGWFRQAPGKEREFVATIWWTFDAPYYADSVKGRFTISADNSKNTAYLQMNSLKPEDTAVYYCAVKERSTGWDFAWGQGTLVTVSS , I see its 100 nM FACS (MFI Ratio) listed as 6.4

For reference, reported 100 nM FACS (MFI Ratio) for NRP1-46 (VHH) VHH: EVQLVESGGGLVQPGGSLRLSCAASGFTFRNFGMGWFRQAPGKEREIVARISPSGNTYYADSVKGRFTISADNSKNTAYLQMNSLKPEDTAVYYCAARRIVNVEGAYRDWGQGTLVTVSS stands at 2.2

Lab note: measured 100 nM FACS (MFI Ratio) of NRP1-268 (antibody, IgG2, V domains shown) VH: EVQLLESGGGLVQPGGSLRLSCAASGFIFSTYALSWVRQAPGKGLEWVSGINGSGASTYYADSVKGRFTISRDNSKNTLYLQMNSLRAEDTAVYYCAREGQGWTSLLPRPSQRRPQRRPPYYGLDVWGQGTLVTVSS VL: DIQMTQSPSSLSASVGDRVTITCRGSQSITRFLNWYQQKPGKAPKLLIYATSRLQSGVPSRFSGSGSGTDFTLTISSLQPEDFATYYCQQSHSFPRTFGGGTKVEIK was 2.1
